Ref: patent US9309263B2

Target: Cathepsin D (Cat D) (Homo sapiens)
Sequence (P07339 65-412, species assumed): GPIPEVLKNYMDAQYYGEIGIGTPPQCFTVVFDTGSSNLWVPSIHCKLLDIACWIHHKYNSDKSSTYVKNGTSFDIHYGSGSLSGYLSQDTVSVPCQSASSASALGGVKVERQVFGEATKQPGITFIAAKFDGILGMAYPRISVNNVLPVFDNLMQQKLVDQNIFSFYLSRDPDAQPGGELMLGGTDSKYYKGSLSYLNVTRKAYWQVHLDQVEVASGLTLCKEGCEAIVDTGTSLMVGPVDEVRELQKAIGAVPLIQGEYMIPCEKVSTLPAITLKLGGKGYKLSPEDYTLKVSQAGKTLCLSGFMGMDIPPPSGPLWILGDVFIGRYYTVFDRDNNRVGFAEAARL
Experiment: In vitro enzymatic Cathepsin D (Cat D) FRET assay
Format: biochemical
Conditions: Cathepsin D FRET assay; read-out: CatD IC50
pIC50: −log10 of the molar value.
attribute.measured: pIC50

In: So what does the record say about pIC50 for Cc1cc(Cl)cnc1C(=O)Nc1ccc2c(c1)[C@@]1(C)N=C(N)C(C)(C)S(=O)(=O)[C@H]1CCS2 ?
Out: 3.56

In: Given the entry Cc1cc(Cl)cnc1C(=O)Nc1ccc2c(c1)[C@@]1(CF)N=C(N)C(C)(C)S(=O)(=O)[C@H]1CCO2 , report its measured pIC50.
Out: 2.89

In: Could you tell me which pIC50 is on file for C[C@H]1C[C@@H]2[C@](C)(N=C(N)C(C)(C)S2(=O)=O)c2cc(Nc3ncnc4cc(C(F)(F)F)cnc34)ccc2O1 ?
Out: 3.37

In: Entry Cc1cc(C(F)(F)F)cnc1C(=O)Nc1ccc2c(c1)[C@@]1(C)N=C(N)C(C)(C)S(=O)(=O)[C@H]1CC(C)(C)O2 : reported pIC50 = ?
Out: 3.84

In: Which measured pIC50 value corresponds to CC1(C)C[C@@H]2[C@](C)(N=C(N)C(C)(C)S2(=O)=O)c2cc(NC(=O)c3ncc(Cl)cc3Cl)ccc2O1 ?
Out: 3.23

(P) CC1(C)C(N)=N[C@]2(CF)c3cc(Nc4nccc5cc(Cl)cnc45)ccc3OCC[C@@H]2S1(=O)=O
(Q) CC#CCOc1cnc(C(=O)Nc2ccc3c(c2)[C@@]2(C)N=C(N)C(C)(C)S(=O)(=O)[C@H]2CC(C)(C)O3)cn1
(R) Cc1cc(C(F)(F)F)cnc1C(=O)Nc1ccc2c(c1)[C@@]1(CF)N=C(N)C(C)(C)S(=O)(=O)[C@H]1C[C@H](C)O2
(S) C[C@H]1C[C@@H]2[C@](C)(N=C(N)C(C)(C)S2(=O)=O)c2cc(Nc3nccc4nc(OCc5ncco5)cnc34)ccc2O1
In: Kindly order the items shown according to pIC50, from the highest value down. Would you mind listing the labels in the order requested?
Out: S, Q, P, R
(S: 3.76, Q: 3.55, P: 3.34, R: 2.83)

(A) Cc1cc(Cl)cnc1C(=O)Nc1ccc2c(c1)[C@@]1(C)N=C(N)C(C)(C)S(=O)(=O)[C@@H]1CCS2
(B) CC1(C)C[C@@H]2[C@](C)(N=C(N)C(C)(C)S2(=O)=O)c2cc(Nc3ncnc4cc(C(F)(F)F)cnc34)ccc2O1
(C) Cc1cc(C(F)(F)F)cnc1C(=O)Nc1ccc2c(c1)[C@@]1(C)N=C(N)C(C)(C)S(=O)(=O)[C@@H]1CC(C)(C)O2
In: Arrange these 3 molecules in increasing order of pIC50. // ordering of labels required in reply
Out: C, B, A

(I) C[C@H]1C[C@@H]2[C@](C)(N=C(N)C(C)(C)S2(=O)=O)c2cc(NC(=O)c3ccc(Cl)cn3)ccc2O1
(II) C#CCOc1cnc(C(=O)Nc2ccc3c(c2)[C@@]2(C)N=C(N)C(C)(C)S(=O)(=O)[C@@H]2C[C@H](C)O3)cn1
(III) Cc1cc(C(F)(F)F)cnc1C(=O)Nc1ccc2c(c1)[C@@]1(C)N=C(N)C(C)(C)S(=O)(=O)[C@@H]1CCS2
In: Returns the items ordered by pIC50, from maximum to minimum. Hello, could you send the labels back in the order asked? Thank you.
Out: II, III, I
(II: 3.67, III: 3.45, I: 3.22)

(P) C#CCOc1ccc(C(=O)Nc2ccc3c(c2)[C@@]2(C)N=C(N)C(C)(C)S(=O)(=O)[C@@H]2C[C@H](C)O3)nc1
(Q) C#CCOc1cnc2c(Nc3ccc4c(c3)[C@@]3(C)N=C(N)C(C)(C)S(=O)(=O)[C@@H]3C[C@H](C)O4)nccc2n1
In: Which value of pIC50 is numerically greater: that of P or that of Q ? Write the label of whichever entry you select.
Out: P
